Octet response: recorded values
- measurement-target: T1, IA peptide (Octet assay of PS557 variants)
- T1 construct: Peptide coated on the Octet sensor
- assay-method-text: Octet (BLI), peptide on sensor, response after 200 s association
- Description: In the high-throughput assay, Octet sensors are coated with the peptide of interest and dipped in buffer containing the purified protein. […] Studying the on and off-rate can also give insight into the mechanism of binding.
measured-parameter: Octet response (nm)

• PS962 (designed binder, Variant of PS557) MPTAASATESAIEDTPAPARPEVDGRTKPKRQPRYHVVLWDDDDHTYQYVVVMLRSLFGHPYARGYRLAKEMDTQGRVIVLTTTREHAELKRDQIHAFGRDRLLARSKGSMKASIEAEE = 10.7
• PS963 (designed binder, Variant of PS557) MPTAASATESAIEDTPAPARPEVDGRTKPKRQPRYHVVLWDDDDHTYQYVVVMLRSLFGHPPARGYRLAKEMDTQGRVIVLTTTREHAELKRDQIHAFGRDRLLARSKGSMKASIEAEE = 10.2
• PS960 (designed binder, Variant of PS557) MPTAASATESAIEDTPAPARPEVDGRTKPKRQPRYHVVLWDDDDHTYQYVVVMLRSLFGIPPERGYRLAKEMDTQGRVIVLTTTREHAELKRDQIHAFGYDRLLARSKGSMKASIEAEE = 9.98
• PS557 (other, Natural ClpS parent protein; also called WT; wild-type protein) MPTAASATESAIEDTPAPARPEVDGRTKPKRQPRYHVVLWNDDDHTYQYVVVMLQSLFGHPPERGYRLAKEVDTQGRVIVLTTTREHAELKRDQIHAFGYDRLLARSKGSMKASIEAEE = 7.2
• PS961 (designed binder, Variant of PS557; also called N41D, V72M, Q55R, E63S, L68M, Y100R) MPTAASATESAIEDTPAPARPEVDGRTKPKRQPRYHVVLWDDDDHTYQYVVVMLRSLFGHPPSRGYRMAKEMDTQGRVIVLTTTREHAELKRDQIHAFGRDRLLARSKGSMKASIEAEE = 11.5
